# measured_on: PDGF-R (Homo sapiens)
# Sequence (P09619 33-1106, species assumed): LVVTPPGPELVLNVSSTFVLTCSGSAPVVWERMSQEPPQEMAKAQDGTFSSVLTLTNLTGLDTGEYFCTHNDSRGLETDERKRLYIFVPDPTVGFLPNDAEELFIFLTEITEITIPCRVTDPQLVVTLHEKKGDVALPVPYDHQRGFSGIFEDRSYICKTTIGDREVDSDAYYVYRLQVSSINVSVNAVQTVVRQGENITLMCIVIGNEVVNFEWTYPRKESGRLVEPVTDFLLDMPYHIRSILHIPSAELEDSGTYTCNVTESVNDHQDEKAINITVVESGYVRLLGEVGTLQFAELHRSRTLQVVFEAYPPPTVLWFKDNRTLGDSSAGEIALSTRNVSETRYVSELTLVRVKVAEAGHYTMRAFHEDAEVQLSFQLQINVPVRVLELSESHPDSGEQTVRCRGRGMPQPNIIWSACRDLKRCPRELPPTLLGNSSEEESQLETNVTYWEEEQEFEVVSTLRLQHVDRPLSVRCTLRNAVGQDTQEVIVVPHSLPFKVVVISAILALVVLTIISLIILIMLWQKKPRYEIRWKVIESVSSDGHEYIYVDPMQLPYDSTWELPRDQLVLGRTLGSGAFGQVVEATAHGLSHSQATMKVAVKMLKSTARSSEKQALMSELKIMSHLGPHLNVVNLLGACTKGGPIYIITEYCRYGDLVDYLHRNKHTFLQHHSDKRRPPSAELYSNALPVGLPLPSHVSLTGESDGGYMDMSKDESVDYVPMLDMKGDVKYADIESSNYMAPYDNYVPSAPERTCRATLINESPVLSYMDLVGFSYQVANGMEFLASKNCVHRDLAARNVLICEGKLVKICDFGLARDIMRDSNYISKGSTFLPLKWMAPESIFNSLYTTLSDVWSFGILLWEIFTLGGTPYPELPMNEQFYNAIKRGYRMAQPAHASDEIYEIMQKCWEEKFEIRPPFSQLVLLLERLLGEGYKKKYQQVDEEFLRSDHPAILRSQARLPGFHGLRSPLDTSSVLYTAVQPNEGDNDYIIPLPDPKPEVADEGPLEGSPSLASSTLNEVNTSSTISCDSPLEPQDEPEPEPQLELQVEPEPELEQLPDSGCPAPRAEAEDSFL
# experiment_description: PDGF-R ELISA
# Type: cell-based
So I've got a bunch of molecules here, and I need their PDGF Kinase %Inhibition values.
Answers are plain numbers, in %.

Solved entries:
O=C1Nc2ccc(F)cc2C1=C1C(=O)Nc2ccc(S(=O)(=O)Nc3ccc(C(F)(F)F)cc3)cc21
34.1
COc1cc(Br)cc(C=C2C(=O)Nc3ccc(S(=O)(=O)Nc4ccc(C(F)(F)F)cc4)cc32)c1O
75.2
O=C1Nc2ccc(CCCl)cc2C1=Cc1ccc(F)cc1F
-6.0
O=C1Nc2ccc(S(=O)(=O)N3CCOCC3)cc2C1=Cc1cc(O)ccc1O
9.4
COc1cc(OC)c(OC)cc1C=C1C(=O)Nc2ccc(I)cc21
17.3
O=C1Nc2ccc(S(=O)(=O)Nc3ccc(C(F)(F)F)cc3)cc2C1=Cc1cc2ccccc2o1
0.1
CC(C)(C)c1cc(C=C2C(=O)Nc3ccc(I)cc32)cc(Cl)c1O
27.8
CC(C)c1ccc2occ(C=C3C(=O)Nc4ccc(CCCl)cc43)c(=O)c2c1
8.0

// batch mode: one PDGF Kinase %Inhibition value per listed entry
1. CNS(=O)(=O)c1ccc2c(c1)C(=Cc1ccc(OC(C)=O)c(OC(C)=O)c1)C(=O)N2
2. COc1cc(OC)c(OC)cc1C=C1C(=O)Nc2ccc(Br)c(C)c21
3. Cc1cc(C=C2C(=O)Nc3ccc(S(=O)(=O)Nc4ccc(C(F)(F)F)cc4)cc32)ccc1O
4. CNS(=O)(=O)c1ccc2c(c1)C(=Cc1cc3c4c(c1O)CCCN4CCC3)C(=O)N2
5. O=C1Nc2ccc(S(=O)(=O)Nc3ccc(C(F)(F)F)cc3)cc2C1=Cc1cc(C(F)(F)F)ccc1F

Solution:
[8.2, 36.5, 18.6, 35.6, 29.4]

====

So I've got a bunch of molecules here, and I need their Met Kinase % Inhibition values.
# System: MET
# experiment_description: MET biochemical kinase assay
# Design: species or system human; concentration or dose not given beside the values
Numbers only, in %.

// batch mode: one Met Kinase % Inhibition value per listed entry
1. CCOc1ccc(C=C2C(=O)Nc3ccc(Br)c(C)c32)cc1OC
2. O=C1Nc2ccc(I)cc2C1=Cc1cccc(Oc2ccccc2)c1
3. Cc1c(Br)cc(Br)c2c1C(=Cc1c(Br)cnn1-c1ccc(Cl)cc1)C(=O)N2
4. CCN(CC)c1ccc(C=C2C(=O)Nc3ccc(S(=O)(=O)Nc4ccc(C(F)(F)F)cc4)cc32)c(O)c1
5. COc1c(C)cc(C=C2C(=O)Nc3ccc(CCCl)cc32)cc1C
6. Cc1ccc(C=C2C(=O)Nc3ccc(S(=O)(=O)Nc4ccc(C(F)(F)F)cc4)cc32)s1
7. Cc1c(Br)ccc2c1C(=Cc1nc3ccccc3n1C)C(=O)N2

Solution:
[41.3, 61.1, 43.2, 63.6, 0.8, 41.0, 59.2]

// batch mode: one Met Kinase % Inhibition value per listed entry
1. CCOC(=O)c1cc(C=C2C(=O)Nc3ccc(CCCl)cc32)oc1C
2. CCc1cc(CC)c(C=C2C(=O)Nc3ccc(S(=O)(=O)N4CCOCC4)cc32)[nH]1
3. CN(C)c1ccc(C=C2C(=O)Nc3c(Br)cc(Br)cc32)cc1
4. O=C1Nc2ccc(CCCl)cc2C1=Cc1ccc(Br)cc1
5. O=C1Nc2ccc(S(=O)(=O)Nc3ccc(C(F)(F)F)cc3)cc2C1=Cc1ccc(Cl)c([N+](=O)[O-])c1
6. O=C1Nc2ccc(S(=O)(=O)Nc3ccc(C(F)(F)F)cc3)cc2C1=Cc1cc([N+](=O)[O-])cc(CCl)c1O

Solution:
1. 61.0
2. 22.0
3. 75.5
4. 10.9
5. 69.6
6. 81.0

// batch mode: one Met Kinase % Inhibition value per listed entry
1. CNS(=O)(=O)c1ccc2c(c1)C(=Cc1ccc(N(C)C)cc1OC)C(=O)N2
2. COc1ccc(C=C2C(=O)Nc3ccc(I)cc32)cc1
3. Cc1c(Br)ccc2c1C(=Cc1ccccc1Br)C(=O)N2
4. CCOc1ccccc1C=C1C(=O)Nc2ccc(Br)c(C)c21
5. O=C1Nc2ccc(S(=O)(=O)Nc3ccc(C(F)(F)F)cc3)cc2C1=Cc1ccc(C(=O)O)cc1
6. CNS(=O)(=O)c1ccc2c(c1)C(=C1C(=O)Nc3ccccc31)C(=O)N2
7. CC(C)(C)c1cc(C=C2C(=O)Nc3ccc(S(=O)(=O)Nc4ccc(C(F)(F)F)cc4)cc32)cc(C(C)(C)C)c1O

Solution:
1. 29.5
2. 64.4
3. 44.3
4. 29.7
5. 73.0
6. 45.7
7. 31.3

// batch mode: one Met Kinase % Inhibition value per listed entry
1. Cc1c(Br)ccc2c1C(=Cc1ccc(C#N)cc1)C(=O)N2
2. COc1ccc(C=C2C(=O)Nc3ccc(Br)c(C)c32)c(OC)c1OC
3. CNS(=O)(=O)c1ccc2c(c1)C(=Cc1ccc(C)s1)C(=O)N2
4. O=C1Nc2ccc(CCCl)cc2C1=Cc1c(F)cc(F)cc1F
5. O=C1Nc2ccc(S(=O)(=O)N3CCOCC3)cc2C1=Cc1coc2ccc([N+](=O)[O-])cc2c1=O
6. Cn1c(C=C2C(=O)Nc3ccc(CCCl)cc32)nc2ccccc21
7. CCOc1cc(C=C2C(=O)Nc3c(Br)cc(Br)cc32)ccc1O

Solution:
1: 37.9; 2: 31.2; 3: 16.8; 4: 20.1; 5: 34.7; 6: 7.9; 7: 75.4
